# combination Emax per record follows
system: RF-48 (B-Cell Non-Hodgkin's Lymphoma); assay: combination Emax (second highest fraction inhibited in the dose matrix, 72 h); higher = more inhibition; extreme values may be limits of the assay
The reply should be a number, written without any unit.

Some entries whose results are on file:
CN(CCO)CC[C@H](CSc1ccccc1)Nc1ccc(S(=O)(=O)NC(=O)c2ccc(N3CCC([C@@H](O)c4ccccc4-c4ccc(Cl)cc4)CC3)cc2)cc1S(=O)(=O)C(F)(F)F [AZD4320] + C[C@@H]1COCCN1C2=NC(=NC(=C2)C3(CC3)[S@](=N)(=O)C)C4=C5C=CNC5=NC=C4 [AZD6738] (first compound max 1 µM, 7x7, partner max 10 µM) : 0.917
N#Cc1cnc(Nc2cc(NC[C@H]3CNCCO3)c(C(F)(F)F)cn2)cn1 [SRA737] + O=c1[nH]cc(F)c(=O)[nH]1 [5-Fluorouracil] (first compound max 10 µM, 7x7, partner max 20 µM) : 0.566
CN(CCO)CC[C@H](CSc1ccccc1)Nc1ccc(S(=O)(=O)NC(=O)c2ccc(N3CCC([C@@H](O)c4ccccc4-c4ccc(Cl)cc4)CC3)cc2)cc1S(=O)(=O)C(F)(F)F [AZD4320] + Cn1cnc2c(F)c(Nc3ccc(Br)cc3Cl)c(C(=O)NOCCO)cc21 [Selumetinib] (first compound max 1 µM, 7x7, partner max 3 µM) : 0.951
Cc1c2c(nn1C)CSCc1cc(n(C)n1)CSc1cc(c3ccccc3c1)OCCCc1c(C(=O)O)n(C)c3c-2c(Cl)ccc13 [AZD5991] + C[C@@H]1COCCN1C2=NC(=NC(=C2)C3(CC3)[S@](=N)(=O)C)C4=C5C=CNC5=NC=C4 [AZD6738] (first compound max 1 µM, 7x7, partner max 10 µM) : 0.545

Exercise: So what's the measured combination Emax for this one? O=C(c1cc(Cc2n[nH]c(=O)c3ccccc23)ccc1F)N1CCN(C(=O)C2CC2)CC1 [Olaparib] + CC1(C)CCC(CN2CCN(c3ccc(C(=O)NS(=O)(=O)c4ccc(NCC5CCOCC5)c([N+](=O)[O-])c4)c(Oc4cnc5[nH]ccc5c4)c3)CC2)=C(c2ccc(Cl)cc2)C1 [Venetoclax] (first compound max 10 µM, 7x7, partner max 1 µM)
Key: 0.606

Exercise: So what's the measured combination Emax for this one? COc1cccc(OCCCN)c1-c1cc(Nc2cnc(C#N)cn2)n[nH]1 [Prexasertib] + C[C@@H]1COCCN1C2=NC(=NC(=C2)C3(CC3)[S@](=N)(=O)C)C4=C5C=CNC5=NC=C4 [AZD6738] (first compound max 1 µM, 7x7, partner max 10 µM)
Key: 0.71

Exercise: So what's the measured combination Emax for this one? COc1nnc2ccc(N3CCC(c4ccc(OCCN5CCN(C)C(=O)[C@H]5C)cc4)CC3)nn12 [AZD5153] + C=CCn1c(=O)c2cnc(Nc3ccc(N4CCN(C)CC4)cc3)nc2n1-c1cccc(C(C)(C)O)n1 [AZD1775] (first compound max 1 µM, partner max 1 µM)
Key: 0.558
